Recorded values, source ChEMBL document CHEMBL2331528.

TESTED TARGET: Coagulation factor VII/tissue factor (Homo sapiens, UniProt P08709)
Sequence (P08709 61-212 limits assumed): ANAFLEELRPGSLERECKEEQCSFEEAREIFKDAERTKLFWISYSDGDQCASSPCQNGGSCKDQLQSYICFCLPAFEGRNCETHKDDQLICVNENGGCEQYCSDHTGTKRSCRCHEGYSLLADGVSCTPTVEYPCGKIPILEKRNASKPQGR
Sequence (P08709 213-466 limits assumed): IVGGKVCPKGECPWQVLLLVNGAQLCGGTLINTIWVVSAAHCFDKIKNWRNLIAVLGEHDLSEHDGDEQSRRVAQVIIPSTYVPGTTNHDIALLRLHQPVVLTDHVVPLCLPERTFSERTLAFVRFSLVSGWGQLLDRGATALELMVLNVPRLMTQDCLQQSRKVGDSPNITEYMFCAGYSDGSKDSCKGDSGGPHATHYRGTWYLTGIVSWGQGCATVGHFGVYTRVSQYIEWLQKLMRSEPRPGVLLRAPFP
Sequence (P13726 33-295 partner limits assumed): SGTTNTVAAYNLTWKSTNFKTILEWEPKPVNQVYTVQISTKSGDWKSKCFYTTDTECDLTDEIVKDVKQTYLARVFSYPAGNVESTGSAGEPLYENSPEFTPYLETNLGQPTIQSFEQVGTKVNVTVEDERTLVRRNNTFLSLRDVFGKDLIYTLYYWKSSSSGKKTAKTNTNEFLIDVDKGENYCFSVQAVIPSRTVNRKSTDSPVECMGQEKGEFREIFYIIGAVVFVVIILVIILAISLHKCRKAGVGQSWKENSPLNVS
ASSAY EXPLANATION: Inhibition of tissue factor-factor 7a (unknown origin) interaction by chromogenic substrate assay
REPORTED PROPERTY: Ki (µM)

Record excerpt, results attached:
MOLECULE	Ki [µM]
CCC[C@]1(C)C[C@@H](C(=O)NCc2ccc(C(=N)N)cc2)n2c1c(Cl)nc(NC1CCC1)c2=O	0.023
CC(Nc1nc(Cl)c2n(c1=O)[C@H](C(=O)NCc1ccc(C(=N)N)cc1)CC2(C)C)C(C)(C)C (stereo partly specified)	0.084
N=C(N)c1ccc(CNC(=O)[C@@H]2CCc3c(Cl)nc(NC4CCC4)c(=O)n32)cc1	0.03
CC(C)(C)OC(=O)CNc1nc(Cl)c2n(c1=O)[C@H](C(=O)NCc1ccc(C(=N)N)cc1)CC2(C)C	0.132

(A) CCC1(CC)C[C@@H](C(=O)NCc2ccc(CN)cc2)n2c1c(Cl)nc(NC1CCC1)c2=O
(B) C[C@@]1(C(=O)NCc2ccccc2)C[C@@H](C(=O)NCc2ccc(C(=N)N)cc2)n2c1c(Cl)nc(NC1CCC1)c2=O
## Task For this pair, A and B , which shows a numerically higher Ki? Your choice should be expressed through its label.
## Result B

====

Below are molecules with their Ki as measured on Coagulation factor X (Homo sapiens, UniProt P00742).
Sequence (P00742 41-179 limits assumed): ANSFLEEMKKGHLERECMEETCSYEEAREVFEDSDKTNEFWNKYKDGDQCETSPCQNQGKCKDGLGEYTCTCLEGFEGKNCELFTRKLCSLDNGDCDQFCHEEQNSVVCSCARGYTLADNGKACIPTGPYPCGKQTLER
Sequence (P00742 235-488 limits assumed): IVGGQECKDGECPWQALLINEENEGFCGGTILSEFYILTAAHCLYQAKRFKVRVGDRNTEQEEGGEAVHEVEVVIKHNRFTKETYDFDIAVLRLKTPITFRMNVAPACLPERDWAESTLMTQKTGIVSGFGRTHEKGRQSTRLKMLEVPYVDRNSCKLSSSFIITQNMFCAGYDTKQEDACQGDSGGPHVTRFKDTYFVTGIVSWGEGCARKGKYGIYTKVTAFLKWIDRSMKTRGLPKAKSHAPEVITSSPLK
REPORTED PROPERTY: Ki (µM)

Record excerpt, results attached:
GIVEN SMILES	Ki / µM
CCCNc1cnc2n(c1=O)[C@H](C(=O)NCc1ccc(C(=N)N)cc1)CC2(CCC)CCC	3.6
CCCC1(CCC)C[C@@H](C(=O)NCc2ccc(C(=N)N)cc2)n2c1c(Cl)nc(NC1CCC1)c2=O	0.55

(A) CCC[C@@]1(C)C[C@@H](C(=O)NCc2ccc(C(=N)N)cc2)n2c1c(Cl)nc(NC1CCC1)c2=O
(B) CCC[C@]1(C)C[C@@H](C(=O)NCc2ccc(C(=N)N)cc2)n2c1c(Cl)nc(NC1CCC1)c2=O
(C) C=CC[C@]1(C)C[C@@H](C(=O)NCc2ccc(C(=N)N)cc2)n2c1c(Cl)nc(NC1CCC1)c2=O
(D) CCC1(CC)C[C@@H](C(=O)NCc2ccc(C(=N)N)cc2)n2c1c(Cl)nc(NC1CCC1)c2=O
## Task Order by Ki, ascending. Use the labels to give the requested order.
## Result C, B, A, D
(C: 0.65 µM, B: 1 µM, A: 2.2 µM, D: 3.3 µM)

====

TESTED TARGET: Coagulation factor VII/tissue factor (Homo sapiens)
ASSAY EXPLANATION: Inhibition of tissue factor-factor 7a (unknown origin) interaction by chromogenic substrate assay
pKi: −log10 of the molar value.
REPORTED PROPERTY: pKi

Record excerpt, results attached:
GIVEN SMILES	TESTED TARGET	pKi
CCNc1nc(Cl)c2n(c1=O)[C@H](C(=O)NCc1ccc(C(=N)N)cc1)CC2(C)C	Coagulation factor VII/tissue factor (Homo sapiens)	7.72
CNc1nc(Cl)c2n(c1=O)[C@H](C(=O)NCc1ccc(C(=N)N)cc1)CC2(C)C	Coagulation factor VII/tissue factor (Homo sapiens)	7.62
N=C(N)c1ccc(CNC(=O)[C@@H]2CC3(CCCC3)c3c(Cl)nc(NC4CCC4)c(=O)n32)cc1	Coagulation factor VII/tissue factor (Homo sapiens)	7.00

(A) C[C@@]1(CO)C[C@@H](C(=O)NCc2ccc(C(=N)N)cc2)n2c1c(Cl)nc(NC1CCC1)c2=O
(B) CC(C)Nc1nc(Cl)c2n(c1=O)[C@H](C(=O)NCc1ccc(C(=N)N)cc1)CC2(C)C
## Task # return whichever of A and B has the smaller pKi Your choice should be expressed through its label.
## Result A

(P) CC1(C)C[C@@H](C(=O)NCc2ccc(C(=N)N)cc2)n2c1c(Cl)nc(NC1(CO)CCCC1)c2=O
(Q) CCC1(CC)C[C@@H](C(=O)NCc2ccc3c(N)nccc3c2)n2c1c(Cl)nc(NC1CCC1)c2=O
(R) CNC(=O)[C@]1(C)C[C@@H](C(=O)NCc2ccc(C(=N)N)cc2)n2c1c(Cl)nc(NC1CCC1)c2=O
## Task # rank_down: sort by pKi, max first Use the labels to give the requested order.
## Result P, Q, R

====

TESTED TARGET: Coagulation factor VII/tissue factor (Homo sapiens, UniProt P08709)
ASSAY EXPLANATION: Inhibition of tissue factor-factor 7a (unknown origin) interaction by chromogenic substrate assay
pKi: −log10 of the molar value.
REPORTED PROPERTY: pKi

GIVEN SMILES	pKi
CCCNc1cnc2n(c1=O)[C@H](C(=O)NCc1ccc(C(=N)N)cc1)C[C@@]2(C)CC	6.82

(A) Cc1ccc(CNc2nc(Cl)c3n(c2=O)[C@H](C(=O)NCc2ccc(C(=N)N)cc2)CC3(C)C)o1
(B) CCC[C@@]1(C)C[C@@H](C(=O)NCc2ccc(C(=N)N)cc2)n2c1c(Cl)nc(NC1CCC1)c2=O
(C) CC1(C)C[C@@H](C(=O)NCc2ccc(C(=N)N)cc2)n2c1c(Cl)nc(NCC1CCCCC1)c2=O
(D) CCC1(CC)C[C@@H](C(=O)NCc2ccc3c(N)noc3c2)n2c1c(Cl)nc(NC1CCC1)c2=O
## Task # rank_down: sort by pKi, max first Use the labels to give the requested order.
## Result B, C, A, D
(B: 7.68, C: 7.12, A: 6.72, D: 5.72)
